molecular target: adenosine A2A receptor (Homo sapiens (Human), UniProt P29274); assay: Adenosine receptor activity assay (Table 1), A2A activity; type: biochemical; details: read-out: Ave A2A cAMP IC50
Sequence (P29274 whole entry): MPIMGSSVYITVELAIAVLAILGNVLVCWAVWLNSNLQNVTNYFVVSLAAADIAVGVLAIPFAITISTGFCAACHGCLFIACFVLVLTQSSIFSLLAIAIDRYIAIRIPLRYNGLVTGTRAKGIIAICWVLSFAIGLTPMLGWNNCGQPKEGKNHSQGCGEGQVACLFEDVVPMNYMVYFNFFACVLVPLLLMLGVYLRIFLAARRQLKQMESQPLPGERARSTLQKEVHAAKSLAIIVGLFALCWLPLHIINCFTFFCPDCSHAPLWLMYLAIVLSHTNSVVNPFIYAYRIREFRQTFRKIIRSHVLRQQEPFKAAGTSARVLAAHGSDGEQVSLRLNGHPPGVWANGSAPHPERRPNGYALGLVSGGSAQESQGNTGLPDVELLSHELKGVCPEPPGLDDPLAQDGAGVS
quantity-name: IC50

>>> meas_value("C[C@H](Nc1nc(C(=O)N2CC(F)(F)C2)c2sccc2n1)c1ccccn1 [Example Z92]")
"100 to 500 nM"
>>> meas_value("C[C@H](Nc1nc(C(=O)NCCc2ccc(C(=O)O)cc2)c2sccc2n1)c1cncc(F)c1 [Example Z452]")
"> 500 nM"

Prompt line: Give IC50 for Cc1cc2nc(N[C@@H](C)c3ccccn3)nc(C(=O)NC[C@@H](C)O)c2s1 [Example Z288]
Response line: 100 to 500 nM

Prompt line: Input CNc1cc2nc(N[C@@H](C)c3cccnc3)nc(C(=O)N3CC[C@@H](F)C3)c2s1 [Example Z161] , output reported IC50.
Response line: 100 to 500 nM

Prompt line: For the compound C[C@H](Nc1nc(C(=O)N2CC[C@H](O)C2)c2sc(C(F)(F)F)cc2n1)c1cncc(F)c1 [Example Z346] , report IC50.
Response line: > 500 nM

Prompt line: // Input: C[C@H](Nc1nc(C(=O)NCCC2CCN(C(=O)OC(C)(C)C)CC2)c2sccc2n1)c1ccccn1 [Example Z342] . Output its IC50 only.
Response line: 100 to 500 nM

Prompt line: Using known records, supply IC50 for C[C@H](Nc1nc(C(=O)N2CCC[C@H]2CO)c2sccc2n1)c1cccnc1 [Example Z47]
Response line: > 500 nM

Prompt line: Given C[C@H](Nc1nc(C(=O)N2CC(CNS(C)(=O)=O)C2)c2sccc2n1)c1cncc(F)c1 [Example Z531] , respond with its IC50.
Response line: 100 to 500 nM

###

molecular target: adenosine A2B receptor (Homo sapiens (Human), UniProt P29275); experiment: Adenosine receptor activity assay (Table 1), A2B activity; assay type: biochemical; details: A2A activity to A2B activity (A2A/A2B)
Sequence (P29275 whole entry): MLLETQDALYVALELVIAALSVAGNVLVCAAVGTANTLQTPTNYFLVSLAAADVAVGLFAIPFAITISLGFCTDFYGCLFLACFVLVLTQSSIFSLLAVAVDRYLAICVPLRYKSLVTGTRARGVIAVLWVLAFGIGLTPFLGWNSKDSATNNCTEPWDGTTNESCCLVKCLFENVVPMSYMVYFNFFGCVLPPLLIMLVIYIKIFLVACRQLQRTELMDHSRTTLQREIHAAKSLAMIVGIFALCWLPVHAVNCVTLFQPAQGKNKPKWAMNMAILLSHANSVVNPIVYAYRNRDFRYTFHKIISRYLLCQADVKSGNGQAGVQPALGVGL
quantity-name: Ratio

>>> meas_value("C[C@H](Nc1nc(C(=O)N2CCCC2)c2sc(N)cc2n1)c1cncc(F)c1")
158.10

A: C[C@H](Nc1nc(C(=O)N2CC[C@H](O)C2)c2sc(C(F)(F)F)cc2n1)c1cncc(F)c1
B: CC(=O)N[C@H]1CCN(C(=O)c2nc(N[C@@H](C)c3cccnc3)nc3ccsc23)C1
Prompt line: Of A and B , which one carries the higher reported Ratio? Returns: label corresponding to the selected item.
Response line: A

A: CC(=O)N[C@@H]1CCN(C(=O)c2nc(N[C@@H](C)c3cccnc3)nc3ccsc23)C1
B: CNc1cc2nc(N[C@@H](C)c3cccnc3)nc(C(=O)N3CC[C@@H](O)C3)c2s1
C: O=C(NCCO)c1nc(NCc2cc(F)cc(F)c2)nc2ccsc12
D: CNc1cc2nc(N[C@@H](C)c3cccnc3)nc(C(=O)N3CC[C@H](O)C3)c2s1
E: CO[C@@H]1CCN(C(=O)c2nc(N[C@@H](C)c3cncc(Cl)c3)nc3ccsc23)C1
Prompt line: Please put the entries in order of rising Ratio. # answer = labels listed in requested order
Response line: A, E, C, B, D
(A: 2.06, E: 10.26, C: 26.40, B: 54.37, D: 114.79)

I: Cc1cc2nc(N[C@@H](C)c3cccnc3)nc(C(=O)NC[C@@H]3CCOC3)c2s1
II: C[C@H](Nc1nc(C(=O)N2CC[C@@H](O)C2)c2sccc2n1)c1cncc(F)c1
Prompt line: // returns I or II , whichever has the lower Ratio // respond with label for picked entry
Response line: I

1: C[C@H](Nc1nc(C(=O)N2CC[C@@H](S(C)(=O)=O)C2)c2sccc2n1)c1cccnc1
2: C[C@H](Nc1nc(C(=O)NC[C@@H](C)O)c2sc(C(F)(F)F)cc2n1)c1cncc(F)c1
3: O=C(NC1CC(O)C1)c1nc(NCc2cncc(F)c2)nc2ccsc12 (stereo not shown) [Example Z184]
Prompt line: List items by Ratio in falling order. List the labels according to the requested ordering.
Response line: 2, 3, 1

1: C[C@H](Nc1nc(C(=O)N[C@H]2CC[C@@H](O)C2)c2sccc2n1)c1cncc(F)c1
2: C[C@H](Nc1nc(C(=O)NCc2nccn2C)c2sccc2n1)c1ccccn1
Prompt line: Given 1 and 2 , report the one with the higher recorded Ratio. // return label of chosen record
Response line: 1
